These entries and their values trace back to the supplement of paper PMC7125110.

B1: glmS ribozyme (parent)
chain: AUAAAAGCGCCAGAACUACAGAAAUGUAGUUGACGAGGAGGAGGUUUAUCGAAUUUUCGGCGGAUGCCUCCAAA

variants of: B1; experiment: self-cleavage kobs at 10000 uM GlcN6P; higher = faster cleavage; RNA array; settings: with glucosamine-6-phosphate
Fewer inactive variants are shown than the library holds.
Each entry below carries its reported self-cleavage kobs at 10000 uM GlcN6P.

RESIDUE SEQUENCE	OBSERVED MEASUREMENT
AUAAAAGUGCCAGAACUACAGAAAUGUAGUUAACGAGGAGGAGGAUUAUCGAAUUCUCGGCGGAUGCCUCCAAA [C8U G32A U45A U56C]	< 1e-05 s⁻¹
AUAAAAACGCCAGAACUACAGAAAUGUAGUUGAUGAGGAGGCGGUUUAUCGAAUUUUCGGCGGAUGCCUCCAAA [G7A C34U A42C]	< 1e-05 s⁻¹
AUAAAAGCCCCAGAACUACAGAAAUGUAGUUGACGAGGAUGAGGUUUAUCGAAUUUUCGGCGGAUGCCUCCAAA [G9C G40U]	< 1e-05 s⁻¹

AUAAAAGCGCCAGAACUACAGAAAUGUAGUUGACGAGGAGGAGGUAUAUCGAAUUUUCGGCCGAUGCCUCUAAA [U46A G62C C71U] yielded self-cleavage kobs at 10000 uM GlcN6P of < 1e-05 s⁻¹

AUAAAAGCGCCAGAACUACAGAAAUGUAGUUGACGGGGAGGAGGUUUGUCGAAUUUUCGGCGGAUGCCUCCAAA [A36G A48G] yielded self-cleavage kobs at 10000 uM GlcN6P of < 1e-05 s⁻¹
